// reported PPI activity GR80, SETVI for each item listed
Test system: SETVI (green foxtail)
Assay: Pre-plant incorporated (PPI) herbicidal activity, cool season
Assay type: in vivo, Setaria viridis
Conditions: pre-plant incorporated; lowest tested rate with 80% or greater inhibition; about 14 days
READOUT NAME: PPI activity GR80, SETVI (g/ha)

test_smiles=CCN(CC)C(=O)n1cnc(S(=O)(=O)C(F)(F)SCCOC)n1 reported=100
test_smiles=C=CCC(F)(F)S(=O)(=O)c1ncn(C(=O)N(CC)CC)n1 reported=30
test_smiles=C=C(CC(F)(F)S(=O)(=O)c1ncn(C(=O)N(CC)CC)n1)C[Si](C)(C)C reported=30
test_smiles=CCN(CC)C(=O)n1cnc(S(=O)(=O)C(F)(F)Br)n1 reported=100
test_smiles=CCN(CC)C(=O)n1cnc(S(=O)(=O)C(F)(F)C(F)F)n1 reported=10
test_smiles=C=C(C)CC(F)(F)S(=O)(=O)c1ncn(C(=O)N(CC)CC)n1 reported=30
test_smiles=C=C(Br)CC(F)(F)S(=O)(=O)c1ncn(C(=O)N(CC)CC)n1 reported=30
test_smiles=CCN(CC)C(=O)n1cnc(S(=O)(=O)C(F)(F)SCC(=O)OC)n1 reported=300
test_smiles=CCN(CC)C(=O)n1cnc(S(=O)(=O)C(F)(F)C(=O)c2ccccc2)n1 reported=300
test_smiles=CCSC(F)(F)S(=O)(=O)c1ncn(C(=O)N(CC)CC)n1 reported=30
test_smiles=CCN(CC)C(=O)n1cnc(S(=O)(=O)C(F)F)n1 reported=100
